Ref: PubChem BioAssay AID588837

biological target: Scavenger receptor class B member 1 (Mus musculus); assay: inhibitors of C384S mutant SR-BI HDL uptake, late-stage follow-up, mechanism study for SR-BI HDL uptake inhibitor project, C384S mutant cells, scintillation, powder samples (AID 588837); settings: CHO ldlA C384S mSR-BI, [3H]CE-HDL uptake, 2 h; at 1 µM; hits give low values
value type: cholesterol uptake (%)

1) CCC(=O)N1CCc2cc(-c3csc(NC(=O)c4ccco4)n3)ccc21	88.3
2) Cc1ccc2oc(-c3cccc(NC(=O)c4cc(-n5cnnc5)ccc4Cl)c3)nc2c1	84.4
3) COc1ccc(-c2nnn(CC(=O)N(C3CCCCC3)C(C)C(=O)NC3CCCC3)n2)cc1OC (stereo not given)	89.4

(I) CCOC(=O)N1CCC(NC(=O)c2ccc3c(c2)N(Cc2ccc(F)cc2)CCS3)CC1
(II) O=C(Nc1ccc(Cl)cc1C(=O)c1ccc(Cl)cc1)c1cc(Br)ccc1NS(=O)(=O)c1ccc(Cl)cc1
Endpoint returns the identifier whose cholesterol uptake is numerically larger, either I or II . Let me know the label of the one you choose. II
(II: 121%, I: 78.2%)
